# tgt: Alpha-ketoglutarate-dependent dioxygenase FTO (Homo sapiens, UniProt Q9C0B1)
# Sequence (Q9C0B1 whole entry, the tested form may be a part): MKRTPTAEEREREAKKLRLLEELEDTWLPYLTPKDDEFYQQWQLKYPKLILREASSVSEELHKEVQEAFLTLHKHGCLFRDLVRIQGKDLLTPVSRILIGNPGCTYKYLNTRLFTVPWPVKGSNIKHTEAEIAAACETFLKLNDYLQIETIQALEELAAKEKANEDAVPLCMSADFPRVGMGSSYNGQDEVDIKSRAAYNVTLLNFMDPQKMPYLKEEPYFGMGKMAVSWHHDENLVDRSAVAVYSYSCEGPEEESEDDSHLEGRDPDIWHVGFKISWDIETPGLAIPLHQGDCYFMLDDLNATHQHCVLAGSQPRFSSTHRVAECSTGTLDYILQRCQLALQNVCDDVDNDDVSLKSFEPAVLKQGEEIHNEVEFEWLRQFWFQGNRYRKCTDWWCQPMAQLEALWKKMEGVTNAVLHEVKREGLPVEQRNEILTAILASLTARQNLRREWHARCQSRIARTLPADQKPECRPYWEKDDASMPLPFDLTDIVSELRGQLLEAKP
# testSummary: Inhibition of N-terminal 31 residues truncated FTO (unknown origin) demethylase activity using m6A containing ssRNA as substrate incubated for 1 hr by LC-MS analysis
# note: exactly 5 µM is not below, so it is no; use yes for IC50 strictly under it

Below are worked cases with known answers.
INSERT INTO results (molecule, tgt, assignedlabel) VALUES
  ('O=C1OC2(c3ccc(O)cc3Oc3cc(O)ccc32)c2ccccc21 [FLUORESCEIN]', 'Alpha-ketoglutarate-dependent dioxygenase FTO (Homo sapiens, UniProt Q9C0B1)', 'yes'),
  ('CC1(CCCNC(=O)/C=C\C(=O)Nc2ccc3c(c2)C(=O)OC32c3ccc(O)cc3Oc3cc(O)ccc32)NN1', 'Alpha-ketoglutarate-dependent dioxygenase FTO (Homo sapiens, UniProt Q9C0B1)', 'yes'),
  ('Nc1ccc2c(c1)C(=O)OC21c2ccc(O)cc2Oc2cc(O)ccc21', 'Alpha-ketoglutarate-dependent dioxygenase FTO (Homo sapiens, UniProt Q9C0B1)', 'no'),
  ('CC(=O)Nc1ccc2c(c1)C(=O)OC21c2ccc(O)cc2Oc2cc(O)ccc21', 'Alpha-ketoglutarate-dependent dioxygenase FTO (Homo sapiens, UniProt Q9C0B1)', 'no'),
  ('C#CCCC1(CCC(=O)Nc2ccc3c(c2)C(=O)OC32c3ccc(O)cc3Oc3cc(O)ccc32)NN1', 'Alpha-ketoglutarate-dependent dioxygenase FTO (Homo sapiens, UniProt Q9C0B1)', 'yes'),
  ('C=CC(=O)Nc1ccc2c(c1)C(=O)OC21c2ccc(O)cc2Oc2cc(O)ccc21', 'Alpha-ketoglutarate-dependent dioxygenase FTO (Homo sapiens, UniProt Q9C0B1)', 'yes');

Now look at this one.
# TODO verify IC50 < 5 µM strictly for this molecule: O=C1OC2(c3ccc(O)cc3Oc3cc(O)ccc32)c2ccccc21
yes
